target-or-test-system: DretNmU-Rb (Deroceras reticulatum, UniProt A0A888YNJ5)
Sequence (A0A888YNJ5 1-502): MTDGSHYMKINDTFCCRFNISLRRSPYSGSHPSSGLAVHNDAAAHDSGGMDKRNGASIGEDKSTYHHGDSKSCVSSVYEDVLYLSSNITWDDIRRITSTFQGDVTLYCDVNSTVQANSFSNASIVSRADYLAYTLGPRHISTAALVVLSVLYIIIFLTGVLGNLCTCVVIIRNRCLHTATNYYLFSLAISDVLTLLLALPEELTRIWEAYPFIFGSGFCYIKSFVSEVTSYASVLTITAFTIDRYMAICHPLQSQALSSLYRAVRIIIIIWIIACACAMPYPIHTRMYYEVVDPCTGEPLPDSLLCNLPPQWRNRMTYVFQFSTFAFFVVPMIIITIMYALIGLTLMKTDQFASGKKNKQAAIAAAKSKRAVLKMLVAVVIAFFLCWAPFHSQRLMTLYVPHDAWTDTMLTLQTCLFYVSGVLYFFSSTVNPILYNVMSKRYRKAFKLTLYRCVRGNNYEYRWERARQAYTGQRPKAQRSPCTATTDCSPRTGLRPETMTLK
assay-overview: Calcium mobilisation (FLIPR Calcium 6 fluorescence) receptor activation assay, Sf9 cells stably expressing DretNmU-Rb
Format: cell-based
test-parameters: 500 nM peptide; Sf9 cells stably expressing DretNmU-Rb; three to four replicates; result in words
Where a SMILES comes first, the peptide text is derived from it.
quantity-name: Binding activity (receptor response, ∆fluorescence) at single concentration

molecule | measured
CC[C@H](C)[C@H](NC(=O)[C@H](CCCNC(=N)N)NC(=O)[C@@H]1CCCN1C(=O)[C@H](CCCNC(=N)N)NC(=O)[C@@H]1CCCN1C(=O)[C@@H](NC(=O)[C@H](C)N)C(C)C)C(N)=O [AVPRPRIa] (H-AVPRPRI-NH2; N-terminus assumed) | evoked distinct binding
CC(C)[C@H](NC(=O)[C@@H]1CCCN1C(=O)[C@@H]1CCCN1C(=O)[C@@H](N)CCC(N)=O)C(=O)N1CCC[C@H]1C(=O)N[C@@H](CCCNC(=N)N)C(=O)N[C@@H](Cc1ccc(O)cc1)C(N)=O [QPPVPRYa] (H-QPPVPRY-NH2) | evoked distinct binding
CC(C)C[C@H](NC(=O)[C@@H]1CCCN1C(=O)[C@@H]1CCCN1C(=O)[C@@H](N)CCC(N)=O)C(=O)N1CCC[C@H]1C(=O)N[C@@H](CCCNC(=N)N)C(=O)N[C@@H](Cc1ccc(O)cc1)C(N)=O [QPPLPRYa] (H-QPPLPRY-NH2; N-terminus assumed) | evoked distinct binding
